Source of measurements: patent US20260266833A1

Each item that follows carries a reported Kd.
molecular target: H3K9me3 peptide; experiment: BLI, biotinylated peptide on streptavidin tips, steady state
Just the number in µM, nothing appended.

Some binders with recorded Kd:
# BINDER, Kd / µM
records = [
    ("Cbx7.V1 back-mutant D8E, His6- and Flag-tagged (designed binder, not shown: small tags and cut ends) SAIGEDIFAVESIRKKRVRKGKVEYLVKWEGWPLEYSTWEPEEHILDPRLVMAYEEKEERDRASGYRKRGPK", 5),
    ("Cbx7.V1 back-mutant E33K, His6- and Flag-tagged (designed binder, not shown: small tags and cut ends) SAIGDDIFAVESIRKKRVRKGKVEYLVKWKGWPLEYSTWEPEEHILDPRLVMAYEEKEERDRASGYRKRGPK", 10),
    ("Cbx7.V1 back-mutant L37P, His6- and Flag-tagged (designed binder, not shown: small tags and cut ends) SAIGDDIFAVESIRKKRVRKGKVEYLVKWEGWPPEYSTWEPEEHILDPRLVMAYEEKEERDRASGYRKRGPK", 3),
    ("Cbx7.V1 back-mutant E38K, His6- and Flag-tagged (designed binder, not shown: small tags and cut ends) SAIGDDIFAVESIRKKRVRKGKVEYLVKWEGWPLKYSTWEPEEHILDPRLVMAYEEKEERDRASGYRKRGPK", 2),
    ("Cbx7.V1 chromodomain, His6- and Flag-tagged (designed binder, not shown: small tags and cut ends) SAIGDDIFAVESIRKKRVRKGKVEYLVKWEGWPLEYSTWEPEEHILDPRLVMAYEEKEERDRASGYRKRGPK", 4.5),
]

Consider the additional binder presented here.
Problem: Give Kd for Cbx7.V1 back-mutant I10V, His6- and Flag-tagged (designed binder, not shown: small tags and cut ends) SAIGDDVFAVESIRKKRVRKGKVEYLVKWEGWPLEYSTWEPEEHILDPRLVMAYEEKEERDRASGYRKRGPK
Solution: 3.5
